molecular target: human dopamine D2 receptor (Homo sapiens, UniProt P14416); construct: expressed in transfected cells; membranes; assay: Human D2 receptor binding study ([125I]-iodosulpride, CHO cell membranes); settings: [125I]-iodosulpride 0.1 nM, read-out: pKi hD2 (converted)
Sequence (P14416 whole entry): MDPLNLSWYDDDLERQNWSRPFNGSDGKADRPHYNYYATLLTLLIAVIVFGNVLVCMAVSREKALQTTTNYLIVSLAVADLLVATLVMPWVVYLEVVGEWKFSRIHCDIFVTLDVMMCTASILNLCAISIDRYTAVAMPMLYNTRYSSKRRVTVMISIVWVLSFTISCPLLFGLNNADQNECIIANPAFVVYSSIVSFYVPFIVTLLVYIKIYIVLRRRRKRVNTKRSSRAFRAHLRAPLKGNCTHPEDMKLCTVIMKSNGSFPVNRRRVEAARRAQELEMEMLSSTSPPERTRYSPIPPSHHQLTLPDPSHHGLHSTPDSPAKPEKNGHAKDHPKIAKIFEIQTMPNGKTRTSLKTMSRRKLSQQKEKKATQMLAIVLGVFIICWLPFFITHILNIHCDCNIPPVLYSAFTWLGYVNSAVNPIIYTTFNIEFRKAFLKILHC
RESULT_TYPE: Ki (nM)

Solved entries (count: 2):
CCCN1CCO[C@@H]2c3cc4c(cc3CC[C@H]21)COC4=O	2000
CCCN1CCO[C@@H]2c3cc4c(=O)[nH]ccc4cc3CC[C@H]21	1260

P. CCCN1CCO[C@@H]2c3cc4c(cc3CC[C@H]21)CCNC4=O
Q. CCCN1CCO[C@@H]2c3cc4c(cc3CC[C@H]21)CCOC4=O
API: POST /compare with P and Q ; response names the item with higher Ki. Mark your selection by writing its label.
Q
